# TARGET: EPHB1 (UniProt P54762)
# Sequence (P54762 whole entry, looked up): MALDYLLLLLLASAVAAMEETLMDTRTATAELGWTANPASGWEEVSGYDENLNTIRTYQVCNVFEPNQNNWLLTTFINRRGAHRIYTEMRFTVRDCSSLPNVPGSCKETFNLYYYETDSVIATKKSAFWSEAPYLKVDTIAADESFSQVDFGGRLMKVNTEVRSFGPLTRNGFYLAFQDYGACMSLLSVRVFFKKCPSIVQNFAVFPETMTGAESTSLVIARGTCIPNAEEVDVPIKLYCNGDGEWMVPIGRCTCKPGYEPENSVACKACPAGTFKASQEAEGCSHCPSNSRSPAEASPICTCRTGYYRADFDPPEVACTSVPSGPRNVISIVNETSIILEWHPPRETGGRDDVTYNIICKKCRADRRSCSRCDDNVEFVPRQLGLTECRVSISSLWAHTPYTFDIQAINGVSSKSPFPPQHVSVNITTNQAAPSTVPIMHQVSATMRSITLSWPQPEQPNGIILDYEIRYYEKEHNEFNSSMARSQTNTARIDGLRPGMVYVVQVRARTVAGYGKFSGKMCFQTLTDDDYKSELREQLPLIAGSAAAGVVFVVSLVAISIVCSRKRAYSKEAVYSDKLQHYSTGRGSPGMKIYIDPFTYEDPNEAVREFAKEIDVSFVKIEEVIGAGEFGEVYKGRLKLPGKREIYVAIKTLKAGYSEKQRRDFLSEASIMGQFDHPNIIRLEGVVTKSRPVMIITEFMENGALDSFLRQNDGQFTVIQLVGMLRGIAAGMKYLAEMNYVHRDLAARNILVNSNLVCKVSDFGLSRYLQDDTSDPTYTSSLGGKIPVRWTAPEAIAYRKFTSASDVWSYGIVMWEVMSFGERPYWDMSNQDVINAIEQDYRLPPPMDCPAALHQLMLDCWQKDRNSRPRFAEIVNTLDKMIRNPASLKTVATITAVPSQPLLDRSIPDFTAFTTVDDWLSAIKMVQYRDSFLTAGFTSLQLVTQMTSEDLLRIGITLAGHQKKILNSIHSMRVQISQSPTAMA
# ASSAY_REMARKS: phosphorylation enrichment, bacterial display (enrichment ratio); higher = better substrate or ligand; peptides without Tyr show the background;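 note: 11-residue human phosphosite peptides and single-mutation variants displayed on the E. coli surface, counted by deep sequencing, each peptide's frequency after selection divided by its frequency in the unselected input library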;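 note: frequency after pTyr selection over input frequency; kinase dosed for 20-30% of maximal phosphorylation in three min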
Listed here: items and their measured phosphorylation enrichment.
Please give the numeric answer without any surrounding text.

# count of solved cases: 3
QMVRMYASSYM [AVPR2_Y124_G122R] :: 0.842
ENAGYYFRVSA :: 0.568
PVVKLYATEGR [RP1_Y199_D202E] :: 0.389

response.value for SSVKPYRVFCD [FGB_Y266_YF] (field: phosphorylation enrichment) = 0.432

Sure, the documented phosphorylation enrichment for ALETLYKKAVK [CC2D2A_Y381_E376A] is 0.348

Input RRYLYYYSYLL [PTEN_Y177_V175L] . Output phosphorylation enrichment: 1.13

Reported phosphorylation enrichment ( EDKSIYRRGAR [PRKCI_Y125] ) = 0.315
